Assignment: determine reported pIC50 for the given compounds.
experimental_system: recombinant PTP1B (catalytic domain) (Homo sapiens, UniProt P18031)
Construct: The enzymatic activities of the PTP1B catalytic domain were determined at 30 °C by monitoring the hydrolysis of pNPP
Sequence (P18031 3-277 limits assumed): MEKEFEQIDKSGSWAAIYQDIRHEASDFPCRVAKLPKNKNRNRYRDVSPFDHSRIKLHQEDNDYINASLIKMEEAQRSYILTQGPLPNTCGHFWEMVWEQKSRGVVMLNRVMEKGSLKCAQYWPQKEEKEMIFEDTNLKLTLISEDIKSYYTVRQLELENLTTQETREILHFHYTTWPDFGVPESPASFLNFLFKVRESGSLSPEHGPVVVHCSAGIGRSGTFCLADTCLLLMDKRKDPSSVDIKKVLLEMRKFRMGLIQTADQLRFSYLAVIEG
assay_procedure: PTP1B inhibitory assay (pNPP hydrolysis)
study_conditions: in vitro; pNPP substrate, 30 °C, pH 6.5
Give bare numbers, as −log10 of the molar value.

Worked cases, answers included:
- compound: "CC(C)=CCCC(C)=CCCC(C)=CCCC1=CCC2OC1NC=C2C=O (centres unmarked)"
  pIC50: 5.28
- compound: "CC(C)=CCCC(C)=CCCC(C)=CCCC1=CCC(O)C2(C(=O)O)CC(=O)NC12 (centres unmarked)"
  pIC50: 4.48
- compound: "CC(C)=CCC/C(C)=C/CC/C(C)=C/CC\\C(C=O)=C/C=C/C(C=O)=C/N"
  pIC50: 5.06

Consider the record given below.
// returns reported pIC50 for input CC(C)=CCC/C(C)=C/CC/C(C)=C/CCc1ccc(O)c(CC(=O)O)c1
4.85
